- tested_on: Fbw7 (UniProt Q969H0 263-707, limits assumed)
- Sequence (Q969H0 263-707 limits assumed): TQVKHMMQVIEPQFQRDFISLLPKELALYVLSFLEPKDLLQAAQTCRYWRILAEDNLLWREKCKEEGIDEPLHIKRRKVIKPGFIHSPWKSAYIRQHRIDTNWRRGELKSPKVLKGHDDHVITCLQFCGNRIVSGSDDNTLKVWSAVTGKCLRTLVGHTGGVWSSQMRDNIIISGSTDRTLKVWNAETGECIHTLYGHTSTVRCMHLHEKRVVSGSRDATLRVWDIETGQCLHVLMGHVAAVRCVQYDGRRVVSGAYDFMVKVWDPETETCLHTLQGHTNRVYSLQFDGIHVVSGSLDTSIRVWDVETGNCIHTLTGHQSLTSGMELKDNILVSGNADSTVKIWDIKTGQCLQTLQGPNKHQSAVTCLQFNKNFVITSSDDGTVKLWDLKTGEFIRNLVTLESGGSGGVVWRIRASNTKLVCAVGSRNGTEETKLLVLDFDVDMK
- assay: cell-based or functional assay
Starred links: 1 amine or outer side, 2 acyl side, 3 side chain; linkers in the order of their positions; H or OH if unused. Non-standard residues stand in square brackets, D forms with d. *: point of attachment. E(Me) = COC(=O)CC[C@H](N[*:1])C(=O)[*:2]; Phe(3-F) = N[C@@H](Cc1cccc(F)c1)C(=O)O; Tos = Cc1ccc(S(=O)(=O)*)cc1; Moc = COC(=O)*

binder	% Inhibition Fbw7 @ 10 µM (%)
Tos-[dD]EG[Phe(3-F)]W[E(Me)]-NH2 (also called UBP032) [Ts-dEGF(3F)WE(Me)-NH2]	4
Moc-[dD]EG[Phe(3-F)]WE-NH2 (SMILES COC(=O)N[C@H](CC(=O)O)C(=O)N[C@@H](CCC(=O)O)C(=O)NCC(=O)N[C@@H](Cc1cccc(F)c1)C(=O)N[C@@H](Cc1c[nH]c2ccccc12)C(=O)N[C@@H](CCC(=O)O)C(N)=O, also called UBP020) [MeO(CO)-dEGF(3F)WE-NH2]	6
